# Test system: HCC461 cells
# Experiment summary: Cell viability assay in HCC461 cells (WST-1)
# Type: cell-based
# Setup conditions: HCC461, 48 h, 48 hrs incubation; Table 2 experiment
Observed property: IC50 (µM)

(1) CN[C@@H](C)C(=O)N[C@H](C(=O)N1C[C@@H](NC(=O)COCC(=O)N[C@H]2C[C@@H](C(=O)N[C@@H]3CCCc4ccccc43)N(C(=O)[C@@H](NC(=O)[C@H](C)NC)C(C)(C)C)C2)C[C@H]1C(=O)N[C@@H]1CCCc2ccccc21)C(C)(C)C
(2) CN[C@@H](C)C(=O)N[C@H](C(=O)N1C[C@@H](NC(=O)c2c(F)c(F)c(F)c(C(=O)N[C@H]3C[C@@H](C(=O)N[C@@H]4CCCc5ccccc54)N(C(=O)[C@@H](NC(=O)[C@H](C)NC)C(C)(C)C)C3)c2F)C[C@H]1C(=O)N[C@@H]1CCCc2ccccc21)C(C)(C)C
// compare: 1 vs 2 , metric IC50, want the smaller Respond with the label that goes with your answer.
2

---

# Assayed target: truncated XIAP containing only BIR1, BIR2, and BIR3 domains (Homo sapiens, UniProt P98170)
# Sequence (P98170 26-330 limits assumed): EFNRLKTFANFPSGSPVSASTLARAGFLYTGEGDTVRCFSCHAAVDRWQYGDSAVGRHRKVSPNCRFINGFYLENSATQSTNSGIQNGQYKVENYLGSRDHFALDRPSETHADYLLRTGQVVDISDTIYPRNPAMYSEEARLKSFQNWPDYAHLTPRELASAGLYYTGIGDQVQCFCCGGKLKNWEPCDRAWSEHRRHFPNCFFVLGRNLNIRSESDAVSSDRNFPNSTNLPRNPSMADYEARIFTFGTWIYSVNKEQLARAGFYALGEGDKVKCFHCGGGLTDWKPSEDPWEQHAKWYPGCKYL
# Experiment summary: Fluorescent polarization (FP) assay
# Format: binding
# Setup conditions: Table 2 experiment
Observed property: Ki (µM)

INSERT INTO measurements (compound, assayed_target, observed_property, quantity_unit, readout_value) VALUES
  ('CN[C@@H](C)C(=O)N[C@H](C(=O)N1C[C@@H](NC(=O)C23CC4CC(C2)CC(C(=O)N[C@H]2C[C@@H](C(=O)N[C@@H]5CCCc6ccccc65)N(C(=O)[C@@H](NC(=O)[C@H](C)NC)C(C)(C)C)C2)(C4)C3)C[C@H]1C(=O)N[C@@H]1CCCc2ccccc21)C(C)(C)C', 'truncated XIAP containing only BIR1, BIR2, and BIR3 domains (Homo sapiens, UniProt P98170)', 'Ki', 'µM', 0.24),
  ('CN[C@@H](C)C(=O)N[C@H](C(=O)N1C[C@@H](NC(=O)[C@H]2CC[C@@](C)(C(=O)N[C@H]3C[C@@H](C(=O)N[C@@H]4CCCc5ccccc54)N(C(=O)[C@@H](NC(=O)[C@H](C)NC)C(C)(C)C)C3)C2(C)C)C[C@H]1C(=O)N[C@@H]1CCCc2ccccc21)C(C)(C)C', 'truncated XIAP containing only BIR1, BIR2, and BIR3 domains (Homo sapiens, UniProt P98170)', 'Ki', 'µM', 0.29),
  ('CN[C@@H](C)C(=O)NC(C(=O)C1C[C@@H](NC(=O)C2CCCC(C(=O)N[C@H]3CC(C(=O)N[C@@H]4CCCc5ccccc54)N(C(=O)[C@@H](NC(=O)[C@H](C)NC)C(C)(C)C)C3)C2)CC1C(=O)N[C@@H]1CCCc2ccccc21)C(C)(C)C (stereo partly shown)', 'truncated XIAP containing only BIR1, BIR2, and BIR3 domains (Homo sapiens, UniProt P98170)', 'Ki', 'µM', 0.25),
  ('CN[C@@H](C)C(=O)NC(C(=O)C1C[C@@H](NC(=O)C2CCCC2C(=O)N[C@H]2CC(C(=O)N[C@@H]3CCCc4ccccc43)N(C(=O)[C@@H](NC(=O)[C@H](C)NC)C(C)(C)C)C2)CC1C(=O)N[C@@H]1CCCc2ccccc21)C(C)(C)C (stereo partly shown) [compound 24]', 'truncated XIAP containing only BIR1, BIR2, and BIR3 domains (Homo sapiens, UniProt P98170)', 'Ki', 'µM', 0.35);
